Tested on: S. aureus (ATCC 29213)
Assay: MBC determinations (with MIC)
Format: cell-based
Conditions: Staphylococcus aureus, ATCC29213; S. aureus (ATCC 29213), MBC experiment (Table 5); read-out: MIC
Please provide measured MIC for the entries that follow.
Answers are plain numbers, in µg/mL.

Below, each entry is followed by its recorded MIC result.
Record for CC(=O)NC[C@H]1CN(c2ccc(N3CCOCC3)c(F)c2)C(=O)O1 under target or system S. aureus (ATCC 29213): MIC reported as 2.5

MIC of COc1cc(Cl)c(-c2cccc3nc(Cc4nc5nc(Cl)ccc5[nH]4)cn23)cc1OC , assay on S. aureus (ATCC 29213), is 0.01

Known value: S. aureus (ATCC 29213) MIC of the compound CO[C@@H]1[C@@H](OC(N)=O)[C@@H](O)[C@H](Oc2ccc3c(O)c(NC(=O)c4ccc(O)c(CC=C(C)C)c4)c(=O)oc3c2C)OC1(C)C equals 0.156

Given the compound Fc1ccc2nc(NCCCN[C@@H]3CCNc4c(Cl)cc(Cl)cc43)[nH]c2n1 [Compound 1717, reference compound] and test system S. aureus (ATCC 29213), the measured MIC is 0.156

Now let's try a different one.
# value of MIC, S. aureus (ATCC 29213), item CCn1c(Cc2ccc(OC)cc2Cl)cn(Cc2nc3nc(Cl)ccc3[nH]2)c1=O = 0.078

----------
I'd appreciate it if you could supply CC50 at 48 h values for the items below.
Assay: Cytotoxicity testing on mammalian cells (AlamarBlue, 48 hours)
Type: cell-based
Conditions: human, CRL-8155 cells (human lymphoblasts), read-out: Mamm. cells (CRL8155) CC50

Entry under test: Clc1cc(Cl)cc(CNCCCNc2nc3ncccc3[nH]2)c1 . Its CC50 at 48 h was 12.2 µg/mL

Note to self: CC50 at 48 h recorded for Fc1ccc2nc(NCCCNCc3cc(Cl)cc(Cl)c3)[nH]c2n1 was 14.8 µg/mL

The compound identified as Fc1ccc2nc(NCCCN[C@@H]3CCNc4c(Cl)cc(Cl)cc43)[nH]c2n1 [Compound 1717, reference compound] registered its CC50 at 48 h at 5.8 µg/mL

Entry CCn1c(Cc2ccc(OC)cc2Cl)cn(Cc2nc3nc(F)ccc3[nH]2)c1=O — recorded CC50 at 48 h = > 20.8 µg/mL

Batch request: CC50 at 48 h per item, same order as input.
1. CCn1c(Cc2ccc(OC)cc2Cl)cn(Cc2nc3nc(Cl)ccc3[nH]2)c1=O
2. O=c1[nH]c(Cc2ccc(Cl)cc2Cl)cn1Cc1nc2ccc(F)nc2[nH]1 [Compound 1962, reference compound]
3. CCn1c(Cc2ccc(Cl)cc2Cl)cn(Cc2nc3nc(F)ccc3[nH]2)c1=O
4. CN[C@H](CC(C)C)C(=O)N[C@H]1C(=O)N[C@@H](CC(N)=O)C(=O)N[C@H]2C(=O)N[C@H]3C(=O)N[C@H](C(=O)N[C@H](C(=O)O)c4cc(O)cc(O)c4-c4cc3ccc4O)[C@H](O)c3ccc(c(Cl)c3)Oc3cc2cc(c3O[C@@H]2O[C@H](CO)[C@@H](O)[C@H](O)[C@H]2O[C@H]2C[C@](C)(N)[C@H](O)[C@H](C)O2)Oc2ccc(cc2Cl)[C@H]1O

Solution:
1: > 21.6 µg/mL; 2: > 19.6 µg/mL; 3: > 21 µg/mL; 4: > 145 µg/mL

----------
Please respond with reported (I) E. faecium (ATCC 51559) MIC for every item in the list.
Tested on: E. faecium VRE (ATCC 51559)
Test: MIC susceptibility testing
Type: cell-based, Enterococcus faecium
Conditions: E. faecium ATCC 51559
Numbers only, in µg/mL.

GET /value?item= CCOC(=O)Nn1c(C(=O)c2ccc(Cl)cc2Cl)cn(Cc2nc3ccc(Cl)nc3[nH]2)c1=O &field=(I) E. faecium (ATCC 51559) MIC returns 0.555

Lab book: (I) E. faecium (ATCC 51559) MIC of CC(C)(N)Cn1c(Cc2ccc(Cl)cc2Cl)cn(Cc2nc3nc(Cl)ccc3[nH]2)c1=O noted as 0.426

Noted for CCn1c(Cc2ccc(OC)cc2Cl)cn(Cc2nc3nc(Cl)ccc3[nH]2)c1=O : its (I) E. faecium (ATCC 51559) MIC reads 0.0387

The compound identified as COc1ccc(-c2nccn3c(=S)n(Cc4nc5nc(Cl)ccc5[nH]4)cc23)c(Cl)c1 registered its (I) E. faecium (ATCC 51559) MIC at 1.01

The recorded (I) E. faecium (ATCC 51559) MIC for COc1ccc(Cc2cn(Cc3nc4c(C)c(Cl)ccc4[nH]3)c(=O)n2CC(C)(C)O)c(Cl)c1 is 2.23

Parameter requested: (I) E. faecium (ATCC 51559) MIC. Apply to each item below.
1. COc1ccc(Cc2cn(Cc3nc4c(Cl)c(Cl)ccc4[nH]3)c(=O)n2CC(C)(C)O)c(Cl)c1
2. CC(C)(O)Cn1c(Cc2ccc(Cl)cc2Cl)cn(Cc2nc3ccc(Cl)nc3[nH]2)c1=O
3. COc1cc(Cl)c(Cc2cn(Cc3nc4nc(Cl)ccc4[nH]3)c(=O)n2CC(C)(C)O)cc1OC
4. COc1ccc(-c2cccc3c2CN(Cc2nc4nc(Cl)ccc4[nH]2)C3=O)c(Cl)c1

Solution:
0.847
0.281
0.0122
0.134

----------
Target: MetRS (T. brucei) (Trypanosoma brucei brucei, UniProt Q38C91)
Sequence (Q38C91 1-773): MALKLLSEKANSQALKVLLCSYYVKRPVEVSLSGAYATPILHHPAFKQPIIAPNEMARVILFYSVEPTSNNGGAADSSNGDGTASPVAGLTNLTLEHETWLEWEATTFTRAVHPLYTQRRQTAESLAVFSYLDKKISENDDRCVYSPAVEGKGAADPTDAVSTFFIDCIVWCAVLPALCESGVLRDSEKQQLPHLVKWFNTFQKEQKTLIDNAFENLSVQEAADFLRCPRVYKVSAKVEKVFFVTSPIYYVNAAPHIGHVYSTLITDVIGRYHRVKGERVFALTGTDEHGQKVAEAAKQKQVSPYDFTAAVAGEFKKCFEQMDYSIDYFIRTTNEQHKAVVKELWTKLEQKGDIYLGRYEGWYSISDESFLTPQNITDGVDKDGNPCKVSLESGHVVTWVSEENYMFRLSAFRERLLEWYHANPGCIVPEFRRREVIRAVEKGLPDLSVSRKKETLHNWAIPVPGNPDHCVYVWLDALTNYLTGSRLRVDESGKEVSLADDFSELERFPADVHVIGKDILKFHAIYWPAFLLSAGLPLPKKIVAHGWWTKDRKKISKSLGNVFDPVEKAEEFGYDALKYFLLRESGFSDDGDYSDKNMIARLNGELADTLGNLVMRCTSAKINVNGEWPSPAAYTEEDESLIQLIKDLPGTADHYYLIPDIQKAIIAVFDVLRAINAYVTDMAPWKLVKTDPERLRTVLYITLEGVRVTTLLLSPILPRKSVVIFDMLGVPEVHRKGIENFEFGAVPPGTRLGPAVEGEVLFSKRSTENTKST
Hi there, I'd appreciate the recorded IC50 for every entry that follows.

Record excerpt, results attached:
The compound listed as C[S+]([O-])c1nc(Cc2ccc(Cl)cc2Cl)cn1Cc1nc2ccc(F)nc2[nH]1 (stereo not shown) shows IC50 equal to < 40 nM

# compound C[S+]([O-])c1nc(Cc2ccc(Cl)cc2Cl)cn1Cc1nc2nc(Cl)ccc2[nH]1 (stereo not shown) ; its IC50 = < 40 nM

Working through the 4 compounds below one at a time, give IC50 for each.
1. O=c1n(Cc2nc3ccc(Cl)nc3[nH]2)cc(Cc2ccc(Cl)cc2Cl)n1CC(F)F
2. CSc1ncc(Cc2ccc(Cl)cc2Cl)n1Cc1nc2nc(Cl)ccc2[nH]1
3. CCn1c(Cc2ccc(Cl)cc2Cl)cn(Cc2cc3nc(F)ccc3[nH]2)c1=O
4. COc1ccc(-c2cccc3c2CN(Cc2nc4nc(F)ccc4[nH]2)CC3)c(Cl)c1

Solution:
["< 40 nM", "2000 nM", "< 40 nM", "203 nM"]

Hi! Can you tell me IC50 for each of these compounds?
1. CCNC(=O)Nc1ccc(-c2ccc(OC)cc2Cl)n2cc(Cc3nc4ccc(Cl)cc4[nH]3)nc12
2. CCn1c(Cc2ccc(Cl)cc2Cl)cn(C(C)c2nc3ccc(Cl)nc3[nH]2)c1=O (stereo not shown)
3. CCn1c(Cc2ccc(Cl)cc2Cl)cn(Cc2nc3ccc(Br)nc3[nH]2)c1=O

Solution:
["< 40 nM", "< 40 nM", "< 40 nM"]

I have 8 compounds here; please give me IC50 for each one.
1. COc1ccc(-c2ccc(NC(C)=O)c3nc(Cc4nc5nc(F)ccc5[nH]4)cn23)c(Cl)c1
2. O=c1n(Cc2nc3nc(F)ccc3[nH]2)cc(Cc2ccc(Cl)cc2Cl)n1C1CCOCC1
3. O=c1n(Cc2nc3ccc(F)nc3[nH]2)cc(Cc2ccc(Cl)cc2Cl)n1C1CCCCC1
4. COc1ccc(-c2cccc3c2CN(Cc2nc4nc(Cl)ccc4[nH]2)CC3)c(Cl)c1
5. COc1cc(Cl)c(-c2cnn3c2CN(Cc2nc4nc(Cl)ccc4[nH]2)CC3)cc1OC
6. CCn1c(Cc2ccc(Cl)cc2Cl)cn(CCc2nc3ccc(F)nc3[nH]2)c1=O
7. COc1ccc(-c2cncc3nc(Cc4nc5nc(Cl)ccc5[nH]4)cn23)c(Cl)c1
8. COc1ccc(-c2ccc(NC(C)=O)c3nc(Cc4nc5nc(Br)ccc5[nH]4)cn23)c(Cl)c1

Solution:
1: < 40 nM; 2: < 40 nM; 3: < 40 nM; 4: < 40 nM; 5: < 40 nM; 6: 41 nM; 7: < 40 nM; 8: < 40 nM

Batch lookup, IC50 per entry.
1. COC(=O)Nc1ccc(-c2ccc(OC)cc2Cl)n2cc(Cc3nc4ccc(Cl)cc4[nH]3)nc12
2. OCCNc1nc(Cc2ccc(Cl)cc2Cl)cn1Cc1nc2ccc(Cl)cc2[nH]1
3. COc1ccc(-c2cnn3c2CN(Cc2nc4nc(Cl)ccc4[nH]2)CC3)c(Cl)c1

Solution:
1: < 40 nM; 2: 1280 nM; 3: < 40 nM

The following compounds each have a reported value; give each one's IC50.
1. COc1ccc(Cc2cn(Cc3nc4nc(Cl)ccc4[nH]3)c(=O)n2CC(C)(C)O)c(Cl)c1
2. COc1ccc(-c2cccn3c(S(C)(=O)=O)c(Cc4nc5nc(Cl)ccc5[nH]4)nc23)c(Cl)c1
3. COc1ccc(-n2ccc(=O)c3cc(F)c(Cc4nc5nc(Cl)ccc5[nH]4)cc32)c(Cl)c1
4. CS(=O)(=O)c1nc(Cc2ccc(Cl)cc2Cl)cn1Cc1nc2ccc(F)nc2[nH]1
5. COc1ccc(-c2cn(Cc3ccccc3)c3c2CN(Cc2nc4nc(Cl)ccc4[nH]2)CC3)c(Cl)c1
6. COc1ccc(-c2ccc3c(=O)ccn(Cc4nc5nc(F)ccc5[nH]4)c3c2)c(Cl)c1

Solution:
< 40 nM
< 40 nM
116 nM
< 40 nM
< 40 nM
< 40 nM

Give IC50 for each of the items listed below.
1. O=c1n(Cc2nc3ccc(F)nc3[nH]2)cc(Cc2ccc(Cl)cc2Cl)n1C1CC1
2. Clc1ccc(Cc2cn(Cc3nc4ccc(Cl)cc4[nH]3)c(Br)n2)c(Cl)c1
3. COc1ccc(-c2cnc(N3CCN(C(C)=O)CC3)c3nc(Cc4nc5nc(Cl)ccc5[nH]4)cn23)c(Cl)c1

Solution:
1. < 40 nM
2. > 10000 nM
3. < 40 nM

For each listed entry, give its IC50.
1. COC(=O)Cn1c(C(O)c2ccc(Cl)cc2Cl)cn(Cc2nc3ccc(Cl)nc3[nH]2)c1=O (stereo not shown)
2. Clc1ccc(Cc2cn(Cc3nc4nc(Cl)ccc4[nH]3)cn2)c(Cl)c1

Solution:
1. < 40 nM
2. < 40 nM
